target: PSMA-expressing LNCaP cells (Homo sapiens, UniProt Q04609); construct: PSMA-expressing LNCaP cells; endogenous in cells; host or cells: LNCaP; experiment: Binding competition assay against 3H-PSMA-617 on LNCaP cells; conditions: LNCaP cells; 10 nM 3H-PSMA-617; competing non-radiolabeled compound 10 nM; 2 h at 37° C.; triplicates
Sequence (Q04609 whole entry): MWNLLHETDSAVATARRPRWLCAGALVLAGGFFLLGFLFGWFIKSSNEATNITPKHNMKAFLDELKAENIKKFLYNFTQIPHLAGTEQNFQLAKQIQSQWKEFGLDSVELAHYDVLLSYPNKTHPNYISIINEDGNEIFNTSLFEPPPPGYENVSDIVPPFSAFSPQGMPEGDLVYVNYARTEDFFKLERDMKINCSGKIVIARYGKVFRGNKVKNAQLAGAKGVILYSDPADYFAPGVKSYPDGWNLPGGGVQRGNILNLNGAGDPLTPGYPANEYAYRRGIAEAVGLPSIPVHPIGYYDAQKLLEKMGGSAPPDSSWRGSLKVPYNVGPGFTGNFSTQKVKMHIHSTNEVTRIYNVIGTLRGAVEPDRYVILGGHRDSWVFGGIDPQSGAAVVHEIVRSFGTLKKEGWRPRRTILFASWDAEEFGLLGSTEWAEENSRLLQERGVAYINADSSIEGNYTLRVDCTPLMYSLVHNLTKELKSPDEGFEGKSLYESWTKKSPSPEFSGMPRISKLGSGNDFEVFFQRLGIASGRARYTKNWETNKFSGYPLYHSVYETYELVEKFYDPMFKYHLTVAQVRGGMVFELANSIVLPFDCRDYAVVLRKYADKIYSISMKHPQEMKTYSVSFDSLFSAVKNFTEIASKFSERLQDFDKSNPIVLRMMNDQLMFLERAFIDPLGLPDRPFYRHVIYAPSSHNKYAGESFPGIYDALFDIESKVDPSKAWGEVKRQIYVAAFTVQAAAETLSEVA
observation_type: remaining activity at 0.01 µM (%)
# output: bare number, implied unit %

Q: For PSMA-expressing LNCaP cells (Homo sapiens, UniProt Q04609), give the measured remaining activity at 0.01 µM of the entry Cc1cc(C(=O)NCCN(CCCN(CCNC(=O)c2cc(C)n(CC(=O)O)c(=O)c2O)CCNC(=O)c2cc(C)n(CC(=O)NCc3ccc(C(=O)N[C@@H](Cc4ccc5ccccc5n4)C(=O)NCCCC[C@H](NC(=O)N[C@@H](CCC(=O)O)C(=O)O)C(=O)O)nc3)c(=O)c2O)CCNC(=O)c2cc(C)n(CC(=O)NCc3ccc(C(=O)NC(Cc4ccc5ccccc5n4)C(=O)NCCCC[C@H](NC(=O)N[C@@H](CCC(=O)O)C(=O)O)C(=O)O)nc3)c(=O)c2O)c(O)c(=O)n1CC(=O)O (stereo partly shown)
Result: 42
